Attribution: ChEMBL document CHEMBL1201862

Tested on: MDA-N
test-details: NCI tumour cell line growth inhibition, 48 h
Calls of active or inactive are those of the source. No stated cut-off is given here; in the data, active = GI50 up to about 1.1 µM and inactive = higher.
Just give me one of these, please: yes = active, no = inactive

Could you please tell me the result logged for CN1c2ccccc2SC2C(c3ccccc3)=NOC21 (stereo not given) in this assay?
no

Just curious, what result did "CC(C)OC(=O)OCSc1ccccc1/N=C/c1cccc([N+](=O)[O-])c1" get here?
no

For this compound, state the assay outcome: "N=C(N)NS(=O)(=O)c1ccc(NCc2c3ccccc3nc3ccccc23)cc1"
no

Please state the recorded outcome for this compound: "COC(=O)CCC1(CCC(=O)OC)CCCCCCC(CCC(=O)OC)(CCC(=O)OC)C(=O)C1=O"
no

Called result for CC1c2cc(c3c(c2O)CN([C@@H](C)C2CCCCC2)CO3)C(C)c2cc(c3c(c2O)CN([C@@H](C)C2CCCCC2)CO3)C(C)c2cc(c3c(c2O)CN([C@@H](C)C2CCCCC2)CO3)C(C)c2cc1c1c(c2O)CN([C@@H](C)C2CCCCC2)CO1 (stereo not given in full)
yes

Identify the outcome logged in this assay for the compound shown: CCC1(C)C=Cc2c(cc(OC)c3c(=O)c4ccccc4n(C)c23)O1 (stereo not given)
no

Each compound tested received a call. Report the one for "O=C(O)Cc1ccc(Nc2nc3ccccc3nc2C(=O)O)cc1" .
no

Identify the outcome logged in this assay for the compound shown: "CCOC(=O)c1c(-c2cccc(Cl)c2)c(C(=O)OC)c(C)c2sc(C=O)nc12"
no

Called result for "O=C(Nc1ccc(S(=O)(=O)Nc2ncccn2)cc1)c1c2ccccc2nc2ccccc12"
no

What outcome does the record of this test show for COc1ccc(N2C(=O)C(Cl)C2c2cc3cc(Br)ccc3nc2Cl)cc1 (stereo not given) ?
no

* * *

Tested on: COLO 205
test-details: NCI tumour cell line growth inhibition, 48 h
Calls of active or inactive are those of the source. Rule as the data show it: active = GI50 up to about 1.1 µM and inactive = higher.
Answer each item with its documented GI50.

What value of GI50 has been recorded for this entry: "C/C(Cl)=N\OC(=O)Nc1ccc(C)cc1"
16.2 µM (inactive)

What GI50 value was documented for this molecule, "NC(=S)NNC(=O)CCC(=O)Nc1ccc(Cl)cc1Cl" ?
> 100 µM (inactive)

Given the molecule NC1C(O)C(O)C(CO)OC1n1cc(F)c(=O)[nH]c1=O (stereo not given) , what is its reported GI50?
> 100 µM (inactive)

Name the reported GI50 value associated with the molecule "COC(=O)/C=C/c1ccc2c(c1)CC1(Cc3ccccc3C1)C2"
> 100 µM (inactive)

Value lookup for GI50; key = "C=C1c2nc3ccccc3n2C=C(c2ccccc2)N1c1ccccc1"
52.5 µM (inactive)

# GI50 lookup, item CC(C)[C@H](CCl)NC(=O)c1cccc(C(=O)N[C@H](CCl)C(C)C)n1 (stereo in doubt)
> 100 µM (inactive)

What does the data say about its GI50? Entry: C=C1C(=O)OC2C1C(OC(=O)/C(C)=C/C)CC(O)(CCl)C1C(O)C=C(C)C21O (stereo not given)
4.58 µM (inactive)

What value of GI50 has been reported for the following molecule? C=CC1(C)CCC2=C(CCC3C(C)(C(=O)OC)CCCC23C)C1=O (stereo not given)
19.1 µM (inactive)

Can you look up the measured GI50 of CC1(C)CCC2=C(O1)c1ccccc1C(=O)C2=O [LAPACHONE] for me?
1.91 µM (inactive)

Can you share its GI50? I mean this molecule: OC1(c2ccccc2)CCCCCCCCC(O)(c2ccccc2)CCCCCCCC1 (stereo not given)
> 100 µM (inactive)

Fill blank: measured GI50 of the molecule CC(C)=CCc1c(O)c(CC2=C(O)C(CC=C(C)C)(C(=O)C(C)C)C(O)=C(C)C2=O)c(O)c(C(=O)C(C)C)c1O (stereo not given) is ____.
13 µM (inactive)

Could you tell me which GI50 is on file for "CN(C)c1cccc(/C=C(\C#N)c2ccccc2)c1" ?
0.533 µM (active)

// GI50 lookup, key: "N=C(N)N/N=C\c1c(-c2cccc([N+](=O)[O-])c2)nc2sc(Cl)cn12"
1.93 µM (inactive)

Which GI50 is listed for "CCc1ccc(COC(=O)C2=C(C)NC(C)=C(C(=O)OCc3ccc(CC)cn3)C2C2=COCCO2)nc1" ?
12.5 µM (inactive)

Look up GI50: "O=c1cc(N2CCCC2)[nH]c(=O)n1-c1ccccc1"
> 100 µM (inactive)

Consider the molecule shown here: "COc1cc(-c2cc(O)c3cc4c(cc3n2)OCO4)cc(OC)c1OC" What is its recorded GI50?
> 100 µM (inactive)

Name the reported GI50 value associated with the molecule "COc1ccc(C2=C(N)c3c(Cl)cccc3C2=O)cc1"
> 100 µM (inactive)

I have this molecule here, "COc1ccc(/C=C/C(=N/NC(=O)N/N=C(/C=C/c2ccc(OC)cc2)C(C)(C)CN2CCCCC2)C(C)(C)CN2CCCCC2)cc1" , and I need its recorded GI50.
1.65 µM (inactive)

Quick one: GI50 of "CC(=O)OCc1ccc(-c2nc(C#N)c(N)o2)o1" ?
> 10 µM (inactive)

Find the recorded GI50 belonging to "O=[N+]([O-])c1nccn1CCCNc1ccnc2cc(Cl)ccc12" and report it.
3.05 µM (inactive)

Name the recorded GI50 for "COC(=O)CNS(=O)(=O)c1ccc(-c2c3nc(c(-c4ccc(S(=O)(=O)NCC(=O)OC)cc4)c4ccc([nH]4)c(-c4ccc(S(=O)(=O)NCC(=O)OC)cc4)c4nc(c(-c5ccc(S(=O)(=O)NCC(=O)OC)cc5)c5ccc2[nH]5)C=C4)C=C3)cc1" .
> 100 µM (inactive)

Suppose we examine the molecule O=C(CCc1ccccc1)CC1OC(=O)C(Cl)=C1Cl (stereo not given) ; what GI50 value has been reported?
17.2 µM (inactive)

Which GI50 is listed for "Clc1cc2nsnc2c(Cl)n1" ?
15.3 µM (inactive)

GI50 lookup needed for C=C(C)C1CCC(C(=O)O)CC1 (stereo not given) , thanks.
> 100 µM (inactive)

Need GI50 of CC(C)(C)c1ccc(C(C)(C)C)c(N2C(=O)C3ON=C(c4ccc([N+](=O)[O-])cc4)C3C2=O)c1 (stereo not given) , thanks.
> 25 µM (inactive)

* * *

I'd be grateful if you could share measured GI50 for these entries.
Test system: ACHN
test-details: NCI tumour cell line growth inhibition, 48 h
Activity calls are given as the source filed them. Cut-off read from the data, not from the text of the source: active = GI50 up to about 1.1 µM and inactive = higher.

Which GI50 is reported for this compound? "CN(C)CC/C(=N\Nc1ccc(Cl)c(Cl)c1)c1ccccc1"
1.69 µM (inactive)

Returns the measured GI50 for the input compound. Input: "Cc1c(CCO)c(O)n2c(nc3ccccc32)c1C#N"
> 100 µM (inactive)

What does the data say about its GI50? Entry: COc1cc(OC2OC(CO)C(O)C(O)C2O)c2c(O)c3c(=O)cc(C)oc3cc2c1 (centres undefined)
> 100 µM (inactive)

// lookup GI50 for "CC(C)OC(=O)OCSc1ccccc1/N=C/c1cccc([N+](=O)[O-])c1"
> 10 µM (inactive)

Report GI50 for "C[n+]1c2ccccc2c(NCC(=O)O)c2ccccc21" please.
> 100 µM (inactive)

What does the record list as GI50 for "CCCCCC(/C=C/c1ncccc1OCCCCCC(=O)O)=N\NC1=NCCN1" ?
> 100 µM (inactive)

Fill in: GI50 of "Cc1ccccc1NC(=O)c1nc(S)nc(N)c1-c1ccccc1C" is ___
> 100 µM (inactive)

If you can, please state the reported GI50 value of "CCCCCCCCCCCCCCCCCc1nc(Cl)nc(Cl)c1Cl" .
> 100 µM (inactive)

Give its GI50 value. Item: "CC(=O)OCc1ccc(-c2nc(C#N)c(N)o2)o1"
> 10 µM (inactive)

* * *

Tested on: OVCAR-8
test-details: NCI tumour cell line growth inhibition, 48 h
Active and inactive are the calls of the source. Cut-off read from the data, not from the text of the source: active = GI50 up to about 1.1 µM and inactive = higher.
Provide the reported GI50 of each item.

Given the entry CCCCOC(C)(C)/C=C/C(O)[C@](C)(O)[C@H]1[C@H](O)C[C@@]2(C)[C@@H]3CCc4c(cc(OC5OC(CO)C(O)C(O)C5O)c(O)c4C)C3(C)C(=O)C[C@]12C (stereo partly drawn) , report its measured GI50.
> 100 µM (inactive)

Item "Oc1ccc(C(=C(Br)c2ccccc2)c2ccc(O)cc2)cc1" has what recorded GI50?
6.58 µM (inactive)

What GI50 value was documented for this compound, O=C(c1ccccc1)c1c(CC(O)c2ccccc2)n(C(=O)c2ccccc2)c2ccccc12 (stereo not drawn) ?
57.7 µM (inactive)

Form field: reported GI50 of O=C(CCc1ccccc1)CC1OC(=O)C(Cl)=C1Cl (stereo not drawn)
20 µM (inactive)

Return reported GI50; argument: "C/C(=N\n1c(Cc2ccccc2)n[nH]c1=O)c1ccccc1"
> 100 µM (inactive)

# get_value(readout='GI50', item= "COC(=O)CCC1(CCC(=O)OC)CCCCCCC(CCC(=O)OC)(CCC(=O)OC)C(=O)C1=O" )
> 100 µM (inactive)

Requested read-out: GI50. Entry: OC1(c2ccccc2)CCCCCCCCC(O)(c2ccccc2)CCCCCCCC1 (stereo not drawn)
> 100 µM (inactive)

GI50 lookup needed for "CCn1c(=O)c(C(=O)O)c(Cl)c2cc3c(cc21)OCO3" , thanks.
> 100 µM (inactive)
